# method: Pharmacokinetics in CD-1 mice (plasma concentrations, PK parameters)
# Assay type: in vivo
# measurement.parameters: CD-1, mouse, plasma, iv, 2 mg/kg, mouse (CD1) iv 2 mg/kg; 0.5 h; Mean; read-out: Concentration
measured.metric: concentration at 0.5 h (ng/mL)

P = O=C1CCC(N2C(=O)c3cccc(NCCOCCOCCNCc4ccc(-n5cc(NC(=O)c6coc(-c7ccnc(NCC8CC8)c7)n6)c(C(F)F)n5)cc4)c3C2=O)C(=O)N1 (centres unmarked) [I-210]
Q = NC(=O)c1nn(-c2ccc(C(=O)NCCCCCNCCNc3cccc4c3C(=O)N(C3CCC(=O)NC3=O)C4=O)cc2)cc1NC(=O)c1coc(-c2ccnc(NCC(F)(F)F)c2)n1 (centres unmarked) [I-172]
Input line: When their concentration at 0.5 h values are compared, which is larger, P or Q ? Choose, then provide that item's label.
Output line: P
(P: 283 ng/mL, Q: 123 ng/mL)

----------
# method: Pharmacokinetics in CD-1 mice (plasma concentrations, PK parameters)
# Assay type: in vivo
# measurement.parameters: CD-1, mouse, plasma, iv, 2 mg/kg, mouse (CD1) iv 2 mg/kg; 1 h; Mean; read-out: Concentration
measured.metric: concentration at 1 h (ng/mL)

1 = O=C1CCC(N2C(=O)c3cccc(NCCOCCOCCNCc4ccc(-n5cc(NC(=O)c6coc(-c7ccnc(NCC8CC8)c7)n6)c(C(F)F)n5)cc4)c3C2=O)C(=O)N1 (centres unmarked)
2 = NC(=O)c1nn(-c2ccc(C(=O)NCCCCCNCCNc3cccc4c3C(=O)N(C3CCC(=O)NC3=O)C4=O)cc2)cc1NC(=O)c1coc(-c2ccnc(NCC(F)(F)F)c2)n1 (centres unmarked)
Input line: Among 1 and 2 , whose measured concentration at 1 h is the smaller figure? Choose, then provide that item's label.
Output line: 2

----------
# method: Pharmacokinetics in Sprague Dawley rats (plasma and brain concentrations, PK parameters)
# Assay type: in vivo
# measurement.parameters: Sprague Dawley, rat, plasma, iv, 3 mg/kg, Sprague Dawley rat, iv 3 mg/kg, Rat 3; read-out: AUCInf Rat 3
measured.metric: AUC(0-inf) (ng·h/mL)
Write the answer as a number in ng·h/mL, unit excluded.

Input line: Please indicate AUC(0-inf) recorded for O=C1CCC(N2C(=O)c3cccc(NCCOCCOCCNCc4ccc(-n5cc(NC(=O)c6coc(-c7ccnc(NCC8CC8)c7)n6)c(C(F)F)n5)cc4)c3C2=O)C(=O)N1 (stereo not shown)
Output line: 1090

----------
# method: Pharmacokinetics in Sprague Dawley rats (plasma and brain concentrations, PK parameters)
# Assay type: in vivo
# measurement.parameters: Sprague Dawley, rat, plasma, po, 10 mg/kg, Sprague Dawley rat, po 10 mg/kg, plasma, 0.25 h, Rat 4; read-out: Concentration Rat 4
measured.metric: concentration at 0.25 h (ng/mL)
Write the answer as a number in ng/mL, unit excluded.

Input line: Please indicate concentration at 0.25 h recorded for O=C1CCC(N2C(=O)c3cccc(NCCOCCOCCNCc4ccc(-n5cc(NC(=O)c6coc(-c7ccnc(NCC8CC8)c7)n6)c(C(F)F)n5)cc4)c3C2=O)C(=O)N1 (stereo not shown)
Output line: 0.716

----------
# study.target: IRAK4 (Homo sapiens)
# Sequence (Q9NWZ3 whole entry): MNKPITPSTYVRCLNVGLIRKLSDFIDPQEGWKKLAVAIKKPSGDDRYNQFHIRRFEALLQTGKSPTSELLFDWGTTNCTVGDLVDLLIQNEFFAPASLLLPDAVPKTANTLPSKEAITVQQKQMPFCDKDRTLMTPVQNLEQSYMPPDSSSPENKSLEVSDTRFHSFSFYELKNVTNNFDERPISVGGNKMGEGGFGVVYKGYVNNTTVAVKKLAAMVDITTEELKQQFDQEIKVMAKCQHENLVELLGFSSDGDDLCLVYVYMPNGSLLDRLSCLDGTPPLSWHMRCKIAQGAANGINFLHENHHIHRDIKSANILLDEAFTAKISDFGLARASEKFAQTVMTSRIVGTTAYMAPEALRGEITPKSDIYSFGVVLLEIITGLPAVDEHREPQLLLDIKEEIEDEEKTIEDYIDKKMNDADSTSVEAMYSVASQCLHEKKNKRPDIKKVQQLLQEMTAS
# method: OCI-LY-10 degradation assay (western blot, % IRAK4 degraded after 4 hours)
# Format: cell-based
# Parameters: endogenous in cells; host or cells: OCI-LY10
# measurement.parameters: OCI-LY10 cells, 4 hours, 0.01 uM compound
# Protocol: Compounds were reconstituted in DMSO to make stock solutions at concentration of 60 mM. THP-1 and OCI-LY10 cells were maintained in RPMI-1640 medium containing 10% FBS, 0.5 μM 2-ME or 20% FBS, 55 μM 2-ME, and 1% L-Glutamine respectively. […] The protein concentration of cell lysates was quantified with Pierce™ BCA Protein Assay Kit (Pierce, 23227). […] After incubation at 37° C. for 30 min, the absorbance of samples at 562 nm were measured with EnVision Plate Reader. […]
measured.metric: OCI-LY10 % IRAK4 Degradation (0.01 uM)

Below are worked cases with known answers.
| molecule | study.target | measured.metric | measured.result |
| --- | --- | --- | --- |
| NC(=O)c1nn(CCCCCCOCCOCCNc2cccc3c2C(=O)N(C2CCC(=O)NC2=O)C3=O)cc1NC(=O)c1coc(-c2ccnc(NCC3CC3)c2)n1 (centres unmarked) | IRAK4 (Homo sapiens) | OCI-LY10 % IRAK4 Degradation (0.01 uM) | C (<20% degradation) |
| O=C1CCC(N2C(=O)c3ccc(CCCCCN4CCC(n5cc(NC(=O)c6coc(-c7ccnc(NCC8CC8)c7)n6)c(C(F)F)n5)CC4)cc3C2=O)C(=O)N1 (centres unmarked) | IRAK4 (Homo sapiens) | OCI-LY10 % IRAK4 Degradation (0.01 uM) | C (<20% degradation) |
| O=C1CCC(N2C(=O)c3ccc(NC4CN(CCOCCOCCNCc5ccc(-n6cc(NC(=O)c7coc(-c8ccnc(NCC9CC9)c8)n7)c(C(F)F)n6)cc5)C4)cc3C2=O)C(=O)N1 (centres unmarked) | IRAK4 (Homo sapiens) | OCI-LY10 % IRAK4 Degradation (0.01 uM) | C (<20% degradation) |
| Cc1cc(-c2nc(C(=O)Nc3cn(-c4ccc(C(=O)NCCOCCOCCNc5cccc6c5C(=O)N(C5CCC(=O)NC5=O)C6=O)cc4)nc3C(N)=O)co2)ccn1 (centres unmarked) | IRAK4 (Homo sapiens) | OCI-LY10 % IRAK4 Degradation (0.01 uM) | B (>20-50% degradation) |
| CN(CCOCCOCCCc1cccc2c1C(=O)N(C1CCC(=O)NC1=O)C2=O)C(=O)c1ccc(-n2cc(NC(=O)c3coc(-c4ccnc(NCC5CC5)c4)n3)c(C(F)F)n2)cc1 (centres unmarked) | IRAK4 (Homo sapiens) | OCI-LY10 % IRAK4 Degradation (0.01 uM) | C (<20% degradation) |

Input line: Please indicate OCI-LY10 % IRAK4 Degradation (0.01 uM) recorded for CN(CCNCCCc1ccc2c(c1)C(=O)N(C1CCC(=O)NC1=O)C2=O)C(=O)c1ccc(-n2cc(NC(=O)c3coc(-c4ccnc(NCC5CC5)c4)n3)c(C(N)=O)n2)cc1 (centres unmarked)
Output line: B (>20-50% degradation)
